Cited source: the supplement of paper PMC9170038

Test system: MS2 coat protein
Assay: apparent KD of MS2 coat protein; designed switch direction (-1 OFF switch, 1 ON switch): -1; higher = weaker reporter binding
Conditions: Eterna round: R95; input ligand: FMN 200 uM
Below, each entry is listed with its recorded apparent KD of MS2 coat protein.
Respond numerically; units are nM and should not be typed.

| sequence entry | tgt | apparent KD of MS2 coat protein / nM |
| --- | --- | --- |
| AGUACUAACACGAAAGUGUUAGUACUAUAAGCUUGUGAUACAUGAGGAUCACCCAUGUCCUCAUAAGCUCGUCUUAU [Mat - Sensor v3 - Turn-off var 2 - D101] (puzzle: Sensor v3, turn-off variant 2) | MS2 coat protein | 19 |

Input line: Short answer please: apparent KD of MS2 coat protein, MS2 coat protein, entry ACAAGCUUUUUGCUCGGGUACAUGAGGAUCACCCAUGUUGUGUUUUAUUGUUUUUGAUUGUUCGUGCGCUGCAGGUU [JR_SV3TOV1_Sub074] (puzzle: Sensor v3, turn-off variant 1)
Output line: 42.7

Input line: Short answer please: apparent KD of MS2 coat protein, MS2 coat protein, entry CAUAGUAAUUAGGAUAUCUGCCGGCUGAGCCGAGGAGAAGGGAUUACAUGAGGAUCACCCAUGUGGUCCUAGAA [Lebireti] (puzzle: Exclusion 6)
Output line: 31.3
